Source of measurements: paper PMC6829466

- System: HIV-1
- ASSAY_EXPLANATION: microbe, parasite or virus in culture
- MEASUREMENT_CONDITIONS: Human immunodeficiency virus 1, CEM-T4, 168 h, wild-type HIV-1 in CEM-T4 cells, p24 antigen, 7 days; 50% inhibition of replication
QUANTITY_MEASURED: IC50 (µM)
Give just the numeric value; µM need not be written.

**Query** Entry CCOP(=O)(C=C(C)C1CCC2(C(=O)O)CCC3(C)C(CCC4C5(C)CCC(OC(=O)CC(C)(C)CC(=O)O)C(C)(C)C5CCC43C)C12)OCC (stereo not shown) [Compound 13b] has what IC50?
**Result** 8.8

**Query** Follow-up entry: C=C(COP(=O)(OCC)OCC)C1CCC2(C(=O)O)CCC3(C)C(CCC4C5(C)CCC(OC(=O)CC(C)(C)CC(=O)O)C(C)(C)C5CCC43C)C12 (stereo not shown) [Compound 12b]
**Result** 0.6

**Query** Let us now turn to C=C(CP(=O)(OCC)OCC)C1CCC2(C(=O)O)CCC3(C)C(CCC4C5(C)CCC(OC(=O)CC(C)(C)CC(=O)O)C(C)(C)C5CCC43C)C12 (stereo not shown) [Compound 14b]
**Result** 0.9
